inhibition at 3 µM values by entry
- study_target: MycN protein (n-myc) (Homo sapiens)
- Construct: either 2×10^6 of L-363 (human leukemia cell line) or SKNBE2 (neuroblastoma cell line) cells; endogenous in cells; host or cells: SKNBE2 / SK-N-BE(2) neuroblastoma cells
- Sequence (P04198 whole entry): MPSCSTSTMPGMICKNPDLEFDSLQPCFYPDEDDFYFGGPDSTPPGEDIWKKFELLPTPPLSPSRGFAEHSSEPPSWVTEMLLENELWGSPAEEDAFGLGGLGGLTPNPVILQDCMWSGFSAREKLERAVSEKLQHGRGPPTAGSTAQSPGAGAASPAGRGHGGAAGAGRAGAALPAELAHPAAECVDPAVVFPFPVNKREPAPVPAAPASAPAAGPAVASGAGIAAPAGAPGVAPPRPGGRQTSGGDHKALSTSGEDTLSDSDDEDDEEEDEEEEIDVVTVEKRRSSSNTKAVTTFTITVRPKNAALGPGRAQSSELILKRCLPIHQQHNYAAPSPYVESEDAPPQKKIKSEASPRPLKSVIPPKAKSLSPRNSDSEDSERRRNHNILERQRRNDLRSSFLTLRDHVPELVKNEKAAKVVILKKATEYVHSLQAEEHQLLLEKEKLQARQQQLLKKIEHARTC
- method_summary: Degradation of MycN protein, 24 h treatment, JESS Western, SK-N-BE(2) cells (Example 161)
- Assay type: cell-based
- condition_details: SKNBE2 cells, 3 μM
quantity_measured: inhibition at 3 µM

| compound | study_target | quantity_measured | val |
| --- | --- | --- | --- |
| CN1CC2(CC(Nc3nccc(Nc4cc(C5CC5)[nH]n4)n3)C2)C1 [Compound 16] | MycN protein (n-myc) (Homo sapiens) | inhibition at 3 µM | 80 to 100% |
| CN(c1nccc(Nc2cc(C3CCCC3)[nH]n2)n1)C1CCN(C2CC2)CC1 [Compound 17] | MycN protein (n-myc) (Homo sapiens) | inhibition at 3 µM | 80 to 100% |
| CN1CCC(Nc2nccc(Nc3cc(C4CC4)[nH]n3)n2)CC1 [Compound 37] | MycN protein (n-myc) (Homo sapiens) | inhibition at 3 µM | 20 to 49% |
| CN(c1nccc(Nc2cc(C3CC3)[nH]n2)n1)C1CC2(C1)CN(Cc1ccccc1F)C2 [Compound 25] | MycN protein (n-myc) (Homo sapiens) | inhibition at 3 µM | < 20% |
| CN(c1nccc(Nc2cc(C3CC3)[nH]n2)n1)C1CC2(C1)CN(C(=O)c1cn(C)nn1)C2 [Compound 31] | MycN protein (n-myc) (Homo sapiens) | inhibition at 3 µM | 80 to 100% |
| CN1CC2(CC(N(C)c3nccc(Nc4cc(C5CC5)[nH]n4)n3)C2)C1 [Compound 7] | MycN protein (n-myc) (Homo sapiens) | inhibition at 3 µM | 20 to 49% |
| CN(c1nccc(Nc2cc(C3CC3)[nH]n2)n1)C1CC2(C1)CN(C(=O)C1CCOCC1)C2 [Compound 32] | MycN protein (n-myc) (Homo sapiens) | inhibition at 3 µM | 80 to 100% |
| CN(c1nccc(Nc2cc(C3CC3)[nH]n2)n1)C1CC2(C1)CN(CC1CC1)C2 [Compound 21] | MycN protein (n-myc) (Homo sapiens) | inhibition at 3 µM | 20 to 49% |

###

- study_target: MycC protein (c-myc) (Homo sapiens, UniProt P01106)
- Construct: either 2×10^6 of L-363 (human leukemia cell line) cells; endogenous in cells; host or cells: L-363 / L363 human leukemia cells
- Sequence (P01106 whole entry): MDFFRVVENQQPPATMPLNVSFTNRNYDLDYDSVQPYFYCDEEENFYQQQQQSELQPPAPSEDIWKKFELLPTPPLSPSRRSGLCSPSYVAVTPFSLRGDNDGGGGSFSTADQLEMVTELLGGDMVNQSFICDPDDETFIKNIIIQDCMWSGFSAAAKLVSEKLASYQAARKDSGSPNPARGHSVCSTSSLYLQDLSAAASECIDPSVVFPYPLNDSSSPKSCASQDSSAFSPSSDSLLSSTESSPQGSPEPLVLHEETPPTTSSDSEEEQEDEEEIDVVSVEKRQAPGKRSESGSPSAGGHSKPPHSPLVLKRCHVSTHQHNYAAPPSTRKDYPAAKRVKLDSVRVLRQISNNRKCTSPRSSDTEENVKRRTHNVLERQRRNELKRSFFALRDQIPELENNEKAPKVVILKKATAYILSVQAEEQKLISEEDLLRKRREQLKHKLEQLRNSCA
- method_summary: Degradation of MycC protein, 24 h treatment, JESS Western, L363 cells (Example 161)
- Assay type: cell-based
- condition_details: L-363 cells, 3 μM
inhibition at 3 µM values by entry

| smiles_string | inhibition at 3 µM |
| --- | --- |
| CN(c1nccc(Nc2cc(C3CC3)[nH]n2)n1)C1CC2(C1)CN(Cc1cccc(OC(F)(F)F)c1)C2 | 50 to 79% |
| CN(c1nccc(Nc2cc(C3CC3)[nH]n2)n1)C1CCN(C2CC2)CC1 | 80 to 100% |
| CN(c1nccc(Nc2cc(C3CC3)[nH]n2)n1)C1CC2(C1)CN(C(=O)c1cccc(C(F)(F)F)c1)C2 | < 20% |
| CN(c1nccc(Nc2cc(C3CC3)[nH]n2)n1)C1CC2(C1)CN(CC(=O)Nc1cccc(S(C)(=O)=O)c1)C2 | 80 to 100% |

###

inhibition at 1 µM values by entry
- study_target: MycC protein (c-myc) (Homo sapiens)
- Construct: either 2×10^6 of L-363 (human leukemia cell line) cells; endogenous in cells; host or cells: L-363 / L363 human leukemia cells
- method_summary: Degradation of MycC protein, 24 h treatment, JESS Western, L363 cells (Example 161)
- Format: cell-based
- condition_details: L-363 cells, 1 μM

| smiles_string | study_target | inhibition at 1 µM |
| --- | --- | --- |
| CN(c1nccc(Nc2cc(C3CC3)[nH]n2)n1)C1CC2(C1)CN(Cc1cc(F)cc(F)c1)C2 | MycC protein (c-myc) (Homo sapiens) | < 20% |
| CN(c1nccc(Nc2cc(C3CC3)[nH]n2)n1)C1CCN(Cc2cc(F)cc(F)c2)CC1 | MycC protein (c-myc) (Homo sapiens) | 80 to 100% |
| CN(c1nccc(Nc2cc(C3CC3)[nH]n2)n1)C1CC2(C1)CN(CCCc1nc3ccccc3o1)C2 | MycC protein (c-myc) (Homo sapiens) | 80 to 100% |
| CN1CC2(CC(Nc3nccc(Nc4cc(C5CC5)[nH]n4)n3)C2)C1 | MycC protein (c-myc) (Homo sapiens) | 80 to 100% |
| CN1CC2(CC(N(C)c3nccc(Nc4cc(C5CC5)[nH]n4)n3)C2)C1 | MycC protein (c-myc) (Homo sapiens) | 20 to 49% |
| CN(c1nccc(Nc2cc(C3CC3)[nH]n2)n1)C1CC2(C1)CN(CC1CC1)C2 | MycC protein (c-myc) (Homo sapiens) | < 20% |
| CN(c1nccc(Nc2cc(C3CC3)[nH]n2)n1)C1CC2(C1)CN(CC(=O)Nc1cccc(S(C)(=O)=O)c1)C2 | MycC protein (c-myc) (Homo sapiens) | 50 to 79% |
| CN(c1nccc(Nc2cc(C3CC3)[nH]n2)n1)C1CC2(C1)CN(C(=O)c1cn(C)nn1)C2 | MycC protein (c-myc) (Homo sapiens) | 80 to 100% |

###

- study_target: MycC protein (Homo sapiens)
- Construct: either 2×10^6 of L-363 (human leukemia cell line) or SKNBE2 (neuroblastoma cell line) cells; endogenous in cells; host or cells: L-363 / L363 human leukemia cells
- Sequence (P01106 whole entry): as above
- method_summary: Degradation of MycC protein, Western blot, L-363 cells (Example 160)
- Type: cell-based
- condition_details: 6 h
- Experimental: In a T150 flask was plated either 2×10^6 of L-363 (human leukemia cell line) or SKNBE2 (neuroblastoma cell line) cells in a total of 30 mL containing Roswell Park Memorial Institute (RPMI) 1640 Medium (Thermo Fisher, Cat. #11875-085), 10% Fetal Bovine Serum (FBS, Thermo Fisher: Cat. #10437-028), 1% Penicillin/streptomycin (Thermo Fisher: Cat. #10378016), and 1% Amophotericin B (Thermo Fisher, Cat. #15290026). […]
inhibition at 2 µM values by entry
quantity_measured: inhibition at 2 µM

| molecule | study_target | quantity_measured | val |
| --- | --- | --- | --- |
| CN(c1nccc(Nc2cc(C3CC3)[nH]n2)n1)[C@H]1CC[C@H](NC(=O)c2ccc(C#N)cn2)CC1 [Compound 137] | MycC protein (Homo sapiens) | inhibition at 2 µM | 20 to 49% |
| CN(c1nccc(Nc2cc(C3CC3)[nH]n2)n1)[C@H]1CC[C@H](NC(=O)Cc2ccnc(C(F)(F)F)c2)CC1 [Compound 123] | MycC protein (Homo sapiens) | inhibition at 2 µM | 20 to 49% |
| CN(c1cc(C2CCCC2)[nH]n1)c1ccnc(N(C)C2CCC(CC(=O)NC3Cc4ccc(C#N)cc4C3)CC2)n1 (stereo not shown) [Compound 138] | MycC protein (Homo sapiens) | inhibition at 2 µM | < 20% |
| CN(c1nccc(Nc2cc(C3CC3)[nH]n2)n1)[C@H]1CC[C@H](NC(=O)Cc2cccc(C#N)n2)CC1 [Compound 125] | MycC protein (Homo sapiens) | inhibition at 2 µM | 80 to 100% |
| CN(c1nccc(Nc2cc(C3CC3)[nH]n2)n1)[C@H]1CC[C@H](NC(=O)c2nc3ccccn3n2)CC1 [Compound 142] | MycC protein (Homo sapiens) | inhibition at 2 µM | 80 to 100% |
| CN(c1cc(C2CCCC2)[nH]n1)c1ccnc(N(C)[C@H]2CC[C@H](NC(=O)C3Cc4ccccc4C3)CC2)n1 [Compound 143] | MycC protein (Homo sapiens) | inhibition at 2 µM | < 20% |
| CN(c1nccc(Nc2cc(C3CC3)[nH]n2)n1)C1CCN(CC(=O)NC2Cc3ccc(C#N)cc3C2)CC1 (stereo not shown) [Compound 2] | MycC protein (Homo sapiens) | inhibition at 2 µM | 80 to 100% |
| CS(=O)(=O)c1cccc(NC(=O)CN2CCC(Nc3nccc(Nc4cc(C5CC5)[nH]n4)n3)CC2)c1 [Compound 6] | MycC protein (Homo sapiens) | inhibition at 2 µM | 80 to 100% |
| CN(c1nccc(Nc2cc(C3CC3)[nH]n2)n1)[C@H]1CC[C@H](NC(=O)c2cccc(C#N)c2)CC1 [Compound 136] | MycC protein (Homo sapiens) | inhibition at 2 µM | 80 to 100% |
| CN(c1nccc(Nc2cc(C3CC3)[nH]n2)n1)[C@H]1CC[C@H](NS(=O)(=O)Cc2cccc(C(F)(F)F)c2)CC1 [Compound 152] | MycC protein (Homo sapiens) | inhibition at 2 µM | 80 to 100% |
| COc1ccc(C#N)cc1CC(=O)N[C@H]1CC[C@H](N(C)c2nccc(Nc3cc(C4CC4)[nH]n3)n2)CC1 [Compound 126] | MycC protein (Homo sapiens) | inhibition at 2 µM | 80 to 100% |
| CN(c1cc(C2CC2)[nH]n1)c1ccnc(N(C)[C@H]2CC[C@H](NC(=O)C3Cc4ccccc4C3)CC2)n1 [Compound 110] | MycC protein (Homo sapiens) | inhibition at 2 µM | 20 to 49% |
| CN(c1cc(C2CC2)[nH]n1)c1ccnc(N(C)C2CCN(CC(=O)Nc3cccc(C(F)(F)F)c3)CC2)n1 [Compound 4] | MycC protein (Homo sapiens) | inhibition at 2 µM | 20 to 49% |
| Cn1nc(Nc2ccnc(N(C)[C@H]3CC[C@H](NC(=O)C4Cc5ccccc5C4)CC3)n2)cc1C1CC1 [Compound 111] | MycC protein (Homo sapiens) | inhibition at 2 µM | < 20% |
| CN(c1nccc(Nc2cc(C3CC3)[nH]n2)n1)[C@H]1CC[C@H](C(=O)NCC2Cc3ccccc3C2)CC1 [Compound 120] | MycC protein (Homo sapiens) | inhibition at 2 µM | 80 to 100% |
| CN(c1nccc(Nc2cc(C3CC3)[nH]n2)n1)C1CCC(CC(=O)Nc2cn(C3COC3)cn2)CC1 (stereo not shown) [Compound 133] | MycC protein (Homo sapiens) | inhibition at 2 µM | 80 to 100% |
| CN(c1nccc(Nc2cc(C3CC3)[nH]n2)n1)[C@H]1CC[C@H](NC(=O)C2(C)CCOCC2)CC1 [Compound 116] | MycC protein (Homo sapiens) | inhibition at 2 µM | 80 to 100% |
| Cn1nnc(C(=O)N[C@H]2CC[C@H](N(C)c3nccc(Nc4cc(C5CCCC5)[nH]n4)n3)CC2)n1 [Compound 145] | MycC protein (Homo sapiens) | inhibition at 2 µM | 80 to 100% |
| CN(c1nccc(Nc2cc(C3CC3)[nH]n2)n1)C1CCN(CC(=O)Nc2cn(C3COC3)cn2)CC1 [Compound 10] | MycC protein (Homo sapiens) | inhibition at 2 µM | 80 to 100% |
| Cn1ncc2cc(C(=O)N[C@H]3CC[C@H](N(C)c4nccc(Nc5cc(C6CC6)[nH]n5)n4)CC3)ccc21 [Compound 118] | MycC protein (Homo sapiens) | inhibition at 2 µM | 80 to 100% |
| CN(c1nccc(Nc2cc(C3CC3)[nH]n2)n1)[C@H]1CC[C@H](NC(=O)N2CCc3cc(F)c(F)cc3C2)CC1 [Compound 13] | MycC protein (Homo sapiens) | inhibition at 2 µM | 80 to 100% |
| CN(c1nccc(Nc2cc(C3CC3)[nH]n2)n1)C1CCN(CC(=O)Nc2cccc(S(C)(=O)=O)c2)CC1 [Compound 3] | MycC protein (Homo sapiens) | inhibition at 2 µM | 80 to 100% |
| CN(c1nccc(Nc2cc(C3CC3)[nH]n2)n1)C1CCC(CC(=O)NC2Cc3ccccc3C2)CC1 (stereo not shown) [Compound 121] | MycC protein (Homo sapiens) | inhibition at 2 µM | 80 to 100% |
| CN(c1nccc(Nc2cc(C3CC3)[nH]n2)n1)[C@H]1CC[C@H](NC(=O)c2cccc(S(C)(=O)=O)c2)CC1 [Compound 132] | MycC protein (Homo sapiens) | inhibition at 2 µM | 80 to 100% |
| CN(c1cc(C2CCCC2)[nH]n1)c1ccnc(N(C)[C@H]2CC[C@H](NC(=O)c3cccc(S(C)(=O)=O)c3)CC2)n1 [Compound 148] | MycC protein (Homo sapiens) | inhibition at 2 µM | 20 to 49% |
| Cc1cnc(CC(=O)NC2CCC(N(C)c3nccc(Nc4cc(C5CC5)[nH]n4)n3)CC2)cn1 (stereo not shown) [Compound 108] | MycC protein (Homo sapiens) | inhibition at 2 µM | 80 to 100% |
| CN(c1nccc(Nc2cc(C3CC3)[nH]n2)n1)[C@H]1CC[C@H](NC(=O)C2CCCC(C(F)(F)F)C2)CC1 (stereo partly shown) [113 F1] | MycC protein (Homo sapiens) | inhibition at 2 µM | 50 to 79% |
| Cn1nnc2cc(C(=O)N[C@H]3CC[C@H](N(C)c4nccc(Nc5cc(C6CC6)[nH]n5)n4)CC3)ccc21 [Compound 139] | MycC protein (Homo sapiens) | inhibition at 2 µM | 80 to 100% |
